# systemUnderTest: EP2 (Homo sapiens, UniProt P43116)
# Sequence (P43116 whole entry): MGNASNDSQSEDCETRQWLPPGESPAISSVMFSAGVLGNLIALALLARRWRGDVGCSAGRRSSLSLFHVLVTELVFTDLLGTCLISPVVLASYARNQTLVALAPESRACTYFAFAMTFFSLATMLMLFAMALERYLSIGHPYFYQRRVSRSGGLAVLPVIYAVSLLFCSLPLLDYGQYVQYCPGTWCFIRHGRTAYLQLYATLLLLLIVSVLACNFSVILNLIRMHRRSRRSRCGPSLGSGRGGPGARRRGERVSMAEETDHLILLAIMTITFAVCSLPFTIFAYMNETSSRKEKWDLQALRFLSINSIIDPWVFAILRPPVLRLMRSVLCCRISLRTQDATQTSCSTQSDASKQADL
# experimentDescription: cAMP HTRF agonist assay, EP2
# experimentalContext: cAMP HTRF agonist assay
# From the text: Table Sup2: Data with some comparator compounds in functional assays. […]
pEC50: −log10 of the molar value.
Entries and their pEC50

# querySmiles, systemUnderTest, pEC50
rows = [
    ("CCCCC[C@H](O)/C=C/[C@H]1C(=O)C[C@H](O)[C@@H]1C/C=C\\CCCC(=O)O", "EP2 (Homo sapiens, UniProt P43116)", "< 5.00"),
    ("O=C(O)COC[C@H]1CC[C@H](COC(=O)N(c2ccccc2)c2ccc(Cl)cc2)CC1", "EP2 (Homo sapiens, UniProt P43116)", "< 5.00"),
    ("CC(C)N(CCCCOCC(=O)O)c1cnc(-c2ccccc2)c(-c2ccccc2)n1", "EP2 (Homo sapiens, UniProt P43116)", "< 5.00"),
]

====

Entries and their EC50
# systemUnderTest: rat IP (Rattus norvegicus, UniProt P43253)
# Sequence (P43253 whole entry): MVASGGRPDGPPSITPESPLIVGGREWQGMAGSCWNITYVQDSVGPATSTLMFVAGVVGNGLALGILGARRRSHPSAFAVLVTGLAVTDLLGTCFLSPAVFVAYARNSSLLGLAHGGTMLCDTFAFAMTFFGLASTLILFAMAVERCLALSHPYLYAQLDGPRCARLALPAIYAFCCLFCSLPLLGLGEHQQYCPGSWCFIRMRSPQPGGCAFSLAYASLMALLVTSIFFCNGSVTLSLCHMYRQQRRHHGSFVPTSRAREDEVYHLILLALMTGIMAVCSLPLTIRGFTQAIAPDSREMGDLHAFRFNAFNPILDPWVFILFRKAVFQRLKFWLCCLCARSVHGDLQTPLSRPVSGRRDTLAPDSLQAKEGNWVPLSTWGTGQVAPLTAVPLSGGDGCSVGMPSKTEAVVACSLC
# experimentDescription: HTRF cAMP assay, recombinant rat IP receptor
# experimentalContext: HTRF (cAMP) rat IP receptor assay; mean of at least three determinations
# Procedure: The new compounds were tested for functional agonist activity in a standard (Cisbio) cAMP assay using recombinant IP or DP1 receptors stably expressed in CHO-K1 cells. […] For development of cAMP accumulation assays, recombinant IP or DP1 receptors were stably expressed in CHO-K1 cells and clonal cell lines derived following standard protocols. […] Plates were then incubated at room temperature for 1 h prior to reading. […]
propertyMeasured: EC50 (nM)

# querySmiles, propertyMeasured, resultQualifier, number
data = [
    ("O=C(O)COC[C@H]1CC[C@H](COC(=O)N(c2ccc(F)cc2)c2ccc(F)cc2)CC1", "EC50", ">", 10000),
    ("O=C(O)COC[C@H]1CC[C@H](COC(=O)N(c2ccccc2)c2cccc(F)c2)CC1", "EC50", "=", 284),
    ("O=C(O)COC[C@H]1CC[C@@H](COC(=O)N(c2ccccc2)c2cccc(F)c2)CC1", "EC50", "=", 561),
    ("COc1ccc(N(C(=O)OC[C@H]2CC[C@@H](COCC(=O)O)CC2)c2ccccc2)cc1", "EC50", ">", 10000),
    ("COc1cccc(N(C(=O)OC[C@H]2CC[C@H](COCC(=O)O)CC2)c2ccccc2)c1", "EC50", "=", 470),
    ("O=C(O)COC[C@H]1CC[C@H](COC(=O)N(c2ccccc2)c2ccc(Cl)c(F)c2)CC1", "EC50", "=", 400),
    ("O=C(O)COC[C@H]1CC[C@@H](COC(=O)N(c2ccccc2)c2ccccc2)CC1", "EC50", "=", 472),
    ("O=C(O)COC[C@H]1CC[C@@H](COC(=O)N(c2ccccc2)c2ccc(Cl)cc2)CC1", "EC50", "=", 560),
    ("O=C(O)COC[C@H]1CC[C@H](COC(=O)N(c2ccccc2)c2ccc(F)cc2)CC1", "EC50", "=", 535),
]

These entries and their values trace back to paper PMC11602115.
